biological target: BRD4-BD2 (Homo sapiens (Human)); experiment: BRD4 AlphaScreen assay, BRD4-BD2; settings: H4Ac4 peptide, 75 min, room temperature, read-out: BRD4 BD-2 enzyme IC50
pIC50: −log10 of the molar value.
Quantity: pIC50

Cn1cc(-c2ccc3c([nH]c(=O)n3C)c2OCC2CC2)c2cc[nH]c2c1=O: > 7.00

Task: # input molecule: "CN1CCN(CCn2c(=O)n(C)c3ccc(-c4cn(C)c(=O)c5[nH]ccc45)c(OCC4CCC4)c32)CC1" ; wanted: its pIC50
Result: > 7.00

Task: Field entry: "Cn1cc(-c2ccc3c([nH]c(=O)n3C)c2OC2CCC2)c2cc[nH]c2c1=O"
Result: > 7.00

Task: Proceed to "Cn1cc(-c2ccc3c(c2Oc2ccccc2)N(Cc2ccccc2)C(=O)CO3)c2cc[nH]c2c1=O"
Result: 6.00 to 7.00

Task: What about "Cn1cc(-c2ccc3c([nH]c(=O)n3C)c2Oc2ccccc2F)c2cc[nH]c2c1=O" ?
Result: > 7.00

Task: Repeat for the following molecule: "COc1c(-c2cn(C)c(=O)c3[nH]ccc23)ccc2c1n(CCC#N)c(=O)n2C"
Result: > 7.00

FYI, the data here is from patent US9918990B2.
